Source listed as the supplement of paper PMC12783771.

B1: library; a variant is named by its letters at X, in order (parent)
chain: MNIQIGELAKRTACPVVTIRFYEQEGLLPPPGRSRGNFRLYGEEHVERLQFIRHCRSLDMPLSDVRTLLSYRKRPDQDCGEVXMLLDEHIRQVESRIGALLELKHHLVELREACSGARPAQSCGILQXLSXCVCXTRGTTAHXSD

variants of: B1; experiment: sfGFP reporter fluorescence (15 h) (µM FITC); higher = stronger transcriptional activation; conditions: library round: Round 2; ligand: 30 µM Zn
Quick reference for sfGFP reporter fluorescence among some variants
property label: sfGFP reporter fluorescence

>  <sequence change>
NGDAP E109D G124A

>  <property label>
sfGFP reporter fluorescence

>  <experimental value>
0.474

$$$$
>  <sequence change>
NGDAP L129I H142A

>  <property label>
sfGFP reporter fluorescence

>  <experimental value>
0.302

$$$$
>  <sequence change>
NSAAP

>  <property label>
sfGFP reporter fluorescence

>  <experimental value>
1.67

$$$$
>  <sequence change>
NGAAS

>  <property label>
sfGFP reporter fluorescence

>  <experimental value>
1.08

$$$$
>  <sequence change>
TGDDL T139A

>  <property label>
sfGFP reporter fluorescence

>  <experimental value>
0.241

$$$$
>  <sequence change>
NHEDW

>  <property label>
sfGFP reporter fluorescence

>  <experimental value>
0.842

$$$$
>  <sequence change>
TGDDY I125L

>  <property label>
sfGFP reporter fluorescence

>  <experimental value>
0.0494

$$$$
>  <sequence change>
NGDDP D87E S95A K104V R111A

>  <property label>
sfGFP reporter fluorescence

>  <experimental value>
0.74

$$$$
>  <sequence change>
NHDDW E109L

>  <property label>
sfGFP reporter fluorescence

>  <experimental value>
0.399

$$$$
>  <sequence change>
TGDAP E109L

>  <property label>
sfGFP reporter fluorescence

>  <experimental value>
0.366

$$$$
>  <sequence change>
TGSAP V108L

>  <property label>
sfGFP reporter fluorescence

>  <experimental value>
0.475

$$$$
>  <sequence change>
SGDDW V108L

>  <property label>
sfGFP reporter fluorescence

>  <experimental value>
0.247

$$$$
>  <sequence change>
NIDDP I90L K104V L107C

>  <property label>
sfGFP reporter fluorescence

>  <experimental value>
0.178

$$$$
>  <sequence change>
NGLAP P61T

>  <property label>
sfGFP reporter fluorescence

>  <experimental value>
1.9

$$$$
>  <sequence change>
TGDDP R111D E112H

>  <property label>
sfGFP reporter fluorescence

>  <experimental value>
0.0529

$$$$
>  <sequence change>
NHDDA V108L

>  <property label>
sfGFP reporter fluorescence

>  <experimental value>
0.271

$$$$
>  <sequence change>
NGDRP D64T E88A

>  <property label>
sfGFP reporter fluorescence

>  <experimental value>
3.13

$$$$
>  <sequence change>
TGDDP E109D E112K

>  <property label>
sfGFP reporter fluorescence

>  <experimental value>
0.418

$$$$
>  <sequence change>
NMDAP L85I

>  <property label>
sfGFP reporter fluorescence

>  <experimental value>
3.11

$$$$
>  <sequence change>
NGDDP P61N D64T E112V

>  <property label>
sfGFP reporter fluorescence

>  <experimental value>
2.13

$$$$
>  <sequence change>
NGTAT

>  <property label>
sfGFP reporter fluorescence

>  <experimental value>
0.937

$$$$
>  <sequence change>
MGAAP

>  <property label>
sfGFP reporter fluorescence

>  <experimental value>
0.0535

$$$$
>  <sequence change>
NGDDP D64K V108E R111L

>  <property label>
sfGFP reporter fluorescence

>  <experimental value>
1.8

$$$$
>  <sequence change>
NHCDL E109L

>  <property label>
sfGFP reporter fluorescence

>  <experimental value>
0.512

$$$$
>  <sequence change>
NIDDP I90L C134E

>  <property label>
sfGFP reporter fluorescence

>  <experimental value>
1.77

$$$$
>  <sequence change>
NGDDP P61N D64K V108M

>  <property label>
sfGFP reporter fluorescence

>  <experimental value>
2.33

$$$$
>  <sequence change>
NIADP L107C

>  <property label>
sfGFP reporter fluorescence

>  <experimental value>
3.67

$$$$
>  <sequence change>
NGCAP S130A

>  <property label>
sfGFP reporter fluorescence

>  <experimental value>
0.429

$$$$
>  <sequence change>
NGDDM I90L I125L

>  <property label>
sfGFP reporter fluorescence

>  <experimental value>
0.0576

$$$$
>  <sequence change>
NIDDP K104T L107E

>  <property label>
sfGFP reporter fluorescence

>  <experimental value>
0.0493

$$$$
>  <sequence change>
NGADL L129V

>  <property label>
sfGFP reporter fluorescence

>  <experimental value>
0.0502

$$$$
>  <sequence change>
NGDDP M60L P61N D64N

>  <property label>
sfGFP reporter fluorescence

>  <experimental value>
2.53

$$$$
>  <sequence change>
TGDDM V108L

>  <property label>
sfGFP reporter fluorescence

>  <experimental value>
0.209

$$$$
>  <sequence change>
TGDAA E112I

>  <property label>
sfGFP reporter fluorescence

>  <experimental value>
0.108

$$$$
>  <sequence change>
TGHPY

>  <property label>
sfGFP reporter fluorescence

>  <experimental value>
0.214

$$$$
>  <sequence change>
NGDAT L85I

>  <property label>
sfGFP reporter fluorescence

>  <experimental value>
0.809

$$$$
>  <sequence change>
TGCDA

>  <property label>
sfGFP reporter fluorescence

>  <experimental value>
0.0857

$$$$
>  <sequence change>
TGDDY V82I L129I

>  <property label>
sfGFP reporter fluorescence

>  <experimental value>
0.0601

$$$$
>  <sequence change>
TIDAP L107C G124A

>  <property label>
sfGFP reporter fluorescence

>  <experimental value>
2.81

$$$$
>  <sequence change>
NIDDP P61N D64K K104V L107A

>  <property label>
sfGFP reporter fluorescence

>  <experimental value>
1.34

$$$$
